# PROTOCOL DETAILS: Single-dose plasma pharmacokinetics
# Assay type: in vivo, human
# MEASUREMENT CONDITIONS: human, plasma, po, 10 mg, tmax, single oral 10 mg, day 1, median (range), N = 8
OBSERVABLE: Tmax (min)

>>> reported("CCS(=O)(=O)N1CC(CC#N)(n2cc(-c3ncnc4[nH]ccc34)cn2)C1")
45

---

# PROTOCOL DETAILS: Single-dose plasma pharmacokinetics
# Type: in vivo, human
# MEASUREMENT CONDITIONS: human, plasma, oral, t1/2, individual values, single dose, across the 2‐ to 10‐mg dose range, day 1
OBSERVABLE: half-life

>>> reported("CCS(=O)(=O)N1CC(CC#N)(n2cc(-c3ncnc4[nH]ccc34)cn2)C1")
"4.5 to 11.8 h"

---

# PROTOCOL DETAILS: Multiple-dose plasma pharmacokinetics
# Assay type: in vivo, human
# MEASUREMENT CONDITIONS: human, plasma, oral, 10 mg
OBSERVABLE: Cmax (ng/mL)

>>> reported("CCS(=O)(=O)N1CC(CC#N)(n2cc(-c3ncnc4[nH]ccc34)cn2)C1 [Baricitinib]")
138

---

# PROTOCOL DETAILS: Single-dose plasma pharmacokinetics
# Type: in vivo, human
# MEASUREMENT CONDITIONS: human, plasma, po, 10 mg
OBSERVABLE: Cmax

>>> reported("CCS(=O)(=O)N1CC(CC#N)(n2cc(-c3ncnc4[nH]ccc34)cn2)C1")
"152 ng/mL"

---

# PROTOCOL DETAILS: Multiple-dose plasma pharmacokinetics
# Format: in vivo, human
# MEASUREMENT CONDITIONS: human, plasma, oral, 2 mg
OBSERVABLE: Tmax (min)

>>> reported("CCS(=O)(=O)N1CC(CC#N)(n2cc(-c3ncnc4[nH]ccc34)cn2)C1")
30

---

# PROTOCOL DETAILS: Multiple-dose plasma pharmacokinetics
# Assay type: in vivo, human
# MEASUREMENT CONDITIONS: human, plasma, oral, 2 mg
OBSERVABLE: AUC

>>> reported("CCS(=O)(=O)N1CC(CC#N)(n2cc(-c3ncnc4[nH]ccc34)cn2)C1")
"146 ng·h/mL"

---

# PROTOCOL DETAILS: Multiple-dose plasma pharmacokinetics
# Type: in vivo, human
# MEASUREMENT CONDITIONS: human, plasma, oral, 2 mg
OBSERVABLE: Cmax (µg/mL)

>>> reported("CCS(=O)(=O)N1CC(CC#N)(n2cc(-c3ncnc4[nH]ccc34)cn2)C1")
0.0286

---

# PROTOCOL DETAILS: Single-dose plasma pharmacokinetics
# Type: in vivo, human
# MEASUREMENT CONDITIONS: human, plasma, po, 2 mg
OBSERVABLE: Cmax (ng/mL)

>>> reported("CCS(=O)(=O)N1CC(CC#N)(n2cc(-c3ncnc4[nH]ccc34)cn2)C1")
24.6

---

# PROTOCOL DETAILS: Single-dose plasma pharmacokinetics
# Format: in vivo, human
# MEASUREMENT CONDITIONS: human, plasma, oral, mean t1/2, single dose, across the 2‐ to 10‐mg dose range, day 1
OBSERVABLE: half-life

>>> reported("CCS(=O)(=O)N1CC(CC#N)(n2cc(-c3ncnc4[nH]ccc34)cn2)C1 [Baricitinib]")
"5.9 to 7.4 h"
